Values were extracted from patent US20070167499A1.

# tested_system: HDAC8 enzyme (GST-HDAC8) (Homo sapiens, UniProt Q9BY41)
# Construct: Amplification of human HDAC1 and HDAC8 coding region from this cDNA library; made in house; host or cells: SF9 insect cells (baculovirus, pFASTBAC vector)
# Sequence (Q9BY41 1-377): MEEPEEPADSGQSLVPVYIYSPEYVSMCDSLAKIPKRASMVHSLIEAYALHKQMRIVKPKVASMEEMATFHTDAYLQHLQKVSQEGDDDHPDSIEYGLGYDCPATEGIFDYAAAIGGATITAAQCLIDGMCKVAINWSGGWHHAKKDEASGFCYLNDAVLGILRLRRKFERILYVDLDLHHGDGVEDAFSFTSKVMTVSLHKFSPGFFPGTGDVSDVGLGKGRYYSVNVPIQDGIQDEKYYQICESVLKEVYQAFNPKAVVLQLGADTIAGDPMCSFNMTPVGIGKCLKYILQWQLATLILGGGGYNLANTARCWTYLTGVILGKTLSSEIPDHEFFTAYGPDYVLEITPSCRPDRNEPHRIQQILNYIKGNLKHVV
# test_details: In vitro HDAC assay for determination of IC50 values (BIOMOL fluorescent-based HDAC activity assay), HDAC8
# Type: biochemical
# measurement_parameters: 500 nM HDAC8 enzyme, 200 μM Flur de lys p53 peptide substrate, room temperature 2 h; read-out: HDAC8 Enzyme Activity, IC50
# Method: Recombinant GST-HDAC1 and GST-HDAC-8 Protein expression and purification Human cDNA library was prepared using cultured SW620 cells. Amplification of human HDAC1 and HDAC8 coding region from this cDNA library was cloned separately into the baculovirus expression pDEST20 vector and pFASTBAC vector respectively (GATEWAY Cloning Technology, Invitrogen Pte Ltd). […] Recombinant baculovirus was prepared using the Bac-To-Bac method following the manufacturer's instruction (Invitrogen Pte Ltd). […]
result_type: IC50 (nM)

# molecule O=C(NO)c1ccc(-c2ccc(CNCCc3ccccn3)cc2)s1 ; its IC50 = 120

# molecule O=C(NO)c1ccc(-c2cccc(CNCCc3ccccn3)c2)s1 ; its IC50 = 50

(a) O=C(COc1ccccc1)Nc1nc(-c2ccc(C(=O)NO)s2)cs1
(b) O=C(Cc1ccc(-c2csc(NC(=O)c3ccn(CC4CCNCC4)c3-c3ccccc3)n2)s1)NO
(c) O=C(NO)c1ccc(-c2cccc(CNCCc3c[nH]c4ccccc34)c2)s1
(d) O=C(NO)c1ccc(-c2cccc(CNCCc3ccccc3)c2)s1
stdin: Please order the records by their reported IC50, lowest number first. # output: labels, in the requested order
stdout: c, d, a, b

====

# tested_system: HDAC8 enzyme (GST-HDAC8) (Homo sapiens, UniProt Q9BY41)
# Construct: Amplification of human HDAC1 and HDAC8 coding region from this cDNA library; made in house; host or cells: SF9 insect cells (baculovirus, pFASTBAC vector)
# test_details: In vitro HDAC assay for determination of IC50 values (BIOMOL fluorescent-based HDAC activity assay), HDAC8
# Assay type: biochemical
result_type: pIC50
pIC50 (log units): -log10 of the concentration in mol/L.

# compound O=C(Cc1ccc(-c2csc(NC(=O)Cc3ccccc3)n2)s1)NO ; its pIC50 = 7.39

====

# tested_system: HDAC8 enzyme (GST-HDAC8) (Homo sapiens, UniProt Q9BY41)
# Construct: Amplification of human HDAC1 and HDAC8 coding region from this cDNA library; made in house; host or cells: SF9 insect cells (baculovirus, pFASTBAC vector)
# test_details: In vitro HDAC assay for determination of IC50 values (BIOMOL fluorescent-based HDAC activity assay), HDAC8
# Assay type: biochemical
# measurement_parameters: 500 nM HDAC8 enzyme, 200 μM Flur de lys p53 peptide substrate, room temperature 2 h; read-out: HDAC8 Enzyme Activity, IC50
# Procedure: Recombinant GST-HDAC1 and GST-HDAC-8 Protein expression and purification Human cDNA library was prepared using cultured SW620 cells. Amplification of human HDAC1 and HDAC8 coding region from this cDNA library was cloned separately into the baculovirus expression pDEST20 vector and pFASTBAC vector respectively (GATEWAY Cloning Technology, Invitrogen Pte Ltd). […] Recombinant baculovirus was prepared using the Bac-To-Bac method following the manufacturer's instruction (Invitrogen Pte Ltd). […]
pIC50: −log10 of the molar value.
result_type: pIC50

Please review the following examples before continuing.
The value of pIC50 recorded for O=C(Cc1ccc(-c2csc(NC(=O)c3ccc(N4CCNCC4)cc3)n2)s1)NO when tested on HDAC8 enzyme (GST-HDAC8) (Homo sapiens, UniProt Q9BY41) reads 7.05

The value of pIC50 recorded for O=C(NO)c1ccc(-c2ccc(NCc3ccccc3)cc2)s1 when tested on HDAC8 enzyme (GST-HDAC8) (Homo sapiens, UniProt Q9BY41) reads 6.96

The value of pIC50 recorded for O=C(NO)c1ccc(-c2ccc(CNCCc3c[nH]c4ccccc34)cc2)s1 when tested on HDAC8 enzyme (GST-HDAC8) (Homo sapiens, UniProt Q9BY41) reads 7.85

The value of pIC50 recorded for O=C(NO)c1ccc(-c2csc(NS(=O)(=O)c3ccccc3)n2)s1 when tested on HDAC8 enzyme (GST-HDAC8) (Homo sapiens, UniProt Q9BY41) reads 6.54

The value of pIC50 recorded for O=C(NO)c1ccc(-c2ccc(CNCCc3ccccc3)cc2)s1 when tested on HDAC8 enzyme (GST-HDAC8) (Homo sapiens, UniProt Q9BY41) reads 7.80

(A) Nc1nc(-c2ccc(/C=C/C(=O)NO)cc2)cs1
(B) O=C(Cc1ccccc1)Nc1nc(-c2cc(C(=O)NO)no2)cs1
stdin: Among A and B , which shows a numerically higher pIC50 result? Pick one; state its label.
stdout: A
